Can you tell me pIC50 for the items I'm about to list?
Tested on: cGAS activity in THP1 cells
test_protocol: Cellular assay: ISRE-Gaussia luciferase reporter THP1 cells transfected with ISD (Interferon Stimulatory DNA)
Format: cell-based
experimental_setup: Homo sapiens, THP-1; ISRE-Gaussia luciferase reporter THP1 cells transfected with 2 μg/mL ISD, 16 hours; read-out: THP1-ISD (Inhibition of cGAS activity in THP1 cells, IC50)
pIC50: −log10 of the molar value.

compound	pIC50
O=C1/C(=C/c2cc(OCc3cnc(NCCO)nc3)c(O)cc2Br)Sc2ncccc21	≥ 5.60

Parameters: items (list). Returns: pIC50 for each item.
1. CC(Oc1cc(/C=C2\SC(=O)N(C)C2=O)c(Br)c(F)c1O)c1cncnc1N (stereo not drawn)
2. CN1C(=O)S/C(=C\c2cc(OCc3cnc(N4CCNCC4)nc3)c(O)cc2Br)C1=O
3. Cc1ncc(COc2cc(/C=C3\SC(=O)N(C)C3=O)c(Br)c(F)c2O)c(N)n1

Output:
1: ≤ 5.00; 2: 5.00 to 5.60; 3: 5.00 to 5.60

Parameters: items (list). Returns: pIC50 for each item.
1. CN1C(=O)S/C(=C\c2cc(OC(F)(F)F)c(O)cc2Br)C1=O
2. CCN1C(=O)S/C(=C\c2cc(OC)c(O)cc2Br)C1=O

Output:
["≥ 5.60", "5.00 to 5.60"]

Parameters: items (list). Returns: pIC50 for each item.
1. CCC(Oc1cc(/C=C2\SC(=O)N(C)C2=O)c(Br)c(F)c1O)c1cnc(N)nc1 (stereo not drawn)
2. CN1C(=O)S/C(=C\c2cc(OCc3cnc(NCc4ccccn4)nc3)c(O)cc2Br)C1=O
3. CN1C(=O)S/C(=C\c2cc(OCc3cnc(NC4CC4)nc3)c(O)cc2Br)C1=O

Output:
5.00 to 5.60
5.00 to 5.60
≥ 5.60

Parameters: items (list). Returns: pIC50 for each item.
1. CN1C(=O)S/C(=C\c2cc(OCc3cnc(NCc4cccnc4)nc3)c(O)cc2Br)C1=O
2. CN1C(=O)S/C(=C\c2cc(OCc3cnc4ccccc4c3)c(O)cc2Br)C1=O
3. CN1C(=O)S/C(=C\c2cc(OCc3cncnc3N)c(O)cc2Br)C1=O

Output:
5.00 to 5.60
5.00 to 5.60
≥ 5.60

Parameters: items (list). Returns: pIC50 for each item.
1. CN1C(=O)S/C(=C\c2cc(OCc3cn[nH]c3)c(O)cc2Br)C1=O
2. CN1C(=O)S/C(=C\c2cc(OCc3cnc(N)nc3)c(O)c(F)c2Br)C1=O
3. CN1C(=O)S/C(=C\c2cc(OCc3cnc([S+](C)[O-])nc3)c(O)cc2Br)C1=O (stereo not drawn)
4. Cc1nc(N)ncc1COc1cc(/C=C2\SC(=O)N(C)C2=O)c(Br)cc1O

Output:
≥ 5.60
≥ 5.60
5.00 to 5.60
≥ 5.60

Parameters: items (list). Returns: pIC50 for each item.
1. O=C1/C(=C/c2cc(OCc3cnc(NCc4ccccn4)nc3)c(O)c(F)c2Br)Sc2ncccc21
2. CN1C(=O)S/C(=C\c2cc(OCC(=O)c3cnc(N)nc3)c(O)c(F)c2Br)C1=O
3. CNc1ncc(COc2cc(/C=C3\Sc4ncccc4C3=O)c(Br)c(F)c2O)cn1
4. CN1C(=O)S/C(=C\c2cc(OCc3cnc([S+](C)[O-])nc3N)c(O)c(F)c2Br)C1=O (stereo not drawn)

Output:
1. ≤ 5.00
2. 5.00 to 5.60
3. 5.00 to 5.60
4. ≤ 5.00

// pIC50 value for CN1C(=O)S/C(=C\c2cc(OCc3cnc(Cl)nc3N)c(O)c(F)c2Br)C1=O : 5.00 to 5.60

---

Can you tell me pIC50 for the items I'm about to list?
test_target: recombinant cGAS (aa147-522) (Homo sapiens)
Construct: recombinant cGAS (aa147-522); His6-SUMO (N, cleaved yes)
Sequence (Q8N884 147-522): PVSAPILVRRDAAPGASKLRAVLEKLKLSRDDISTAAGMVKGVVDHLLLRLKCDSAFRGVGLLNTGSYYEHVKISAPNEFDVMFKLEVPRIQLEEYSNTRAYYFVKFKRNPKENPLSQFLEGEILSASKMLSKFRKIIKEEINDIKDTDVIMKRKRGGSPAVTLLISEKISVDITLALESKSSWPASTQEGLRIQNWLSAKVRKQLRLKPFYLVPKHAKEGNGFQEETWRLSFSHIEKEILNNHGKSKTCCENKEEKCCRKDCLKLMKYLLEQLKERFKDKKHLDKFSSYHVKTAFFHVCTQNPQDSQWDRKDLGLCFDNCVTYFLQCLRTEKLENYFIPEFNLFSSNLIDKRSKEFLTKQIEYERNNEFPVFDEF
test_protocol: In vitro assay for inhibition of cGAS activity (ATP consumption, Kinase Glo)
experimental_setup: 37° C. 20 minutes, read-out: Activity (Inhibition of cGAS enzyme activity in vitro, IC50)
pIC50: −log10 of the molar value.

compound	pIC50
COCCNc1ncc(C(C)Oc2cc(/C=C3\SC(=O)N(C)C3=O)c(Br)cc2O)cn1 (centres unmarked)	5.00 to 6.30

Parameters: items (list). Returns: pIC50 for each item.
1. C[S+]([O-])c1ncc(COc2cc(/C=C3\Sc4ncccc4C3=O)c(Br)c(F)c2O)cn1 (centres unmarked)
2. CN1C(=O)S/C(=C\c2cc(OCc3cc[nH]c(=O)c3)c(O)cc2Br)C1=O
3. CN1C(=O)S/C(=C\c2cc(Oc3ccc([N+](=O)[O-])nc3)c(O)cc2Br)C1=O
4. CSc1ncncc1C(=O)C(C)Oc1cc(/C=C2\SC(=O)N(C)C2=O)c(Br)c(F)c1O (centres unmarked)
5. CN1C(=O)S/C(=C\c2cc(OCc3cncc(NC(=O)c4cccnc4)c3)c(O)cc2Br)C1=O
6. CCC(Oc1cc(/C=C2\SC(=O)N(C)C2=O)c(Br)c(F)c1O)c1cnc(N)nc1 (centres unmarked)

Output:
1. 5.00 to 6.30
2. 5.00 to 6.30
3. 5.00 to 6.30
4. ≤ 5.00
5. 5.00 to 6.30
6. ≥ 6.30

Parameters: items (list). Returns: pIC50 for each item.
1. CN1C(=O)S/C(=C\c2cc(OCc3cnc(N4CCCC4)nc3)c(O)cc2Br)C1=O
2. CNc1ncc(COc2cc(/C=C3\SC(=O)N(C)C3=O)c(Br)cc2O)cn1
3. CN1C(=O)S/C(=C\c2cc(OCc3cnc(Nc4ccncc4)nc3)c(O)cc2Br)C1=O
4. CC(C)c1cc(/C=C2\SC(=O)N(C)C2=O)c(Br)cc1O

Output:
1: ≤ 5.00; 2: ≥ 6.30; 3: ≥ 6.30; 4: ≤ 5.00

---

test_target: recombinant cGAS (aa147-522) (Homo sapiens)
Construct: recombinant cGAS (aa147-522); His6-SUMO (N, cleaved yes)
test_protocol: In vitro assay for inhibition of cGAS activity (ATP consumption, Kinase Glo)
experimental_setup: 37° C. 20 minutes, read-out: Activity (Inhibition of cGAS enzyme activity in vitro, IC50)
Can you tell me IC50 for the items I'm about to list?

Reference set (4 entries):
molecule	IC50
COc1cc(/C=C2\SC(=O)N(C)C2=O)c(Br)cc1NS(=O)(=O)C(F)(F)F	500 to 10000 nM
Cc1nc([S+](C)[O-])nc(C)c1COc1cc(/C=C2\SC(=O)N(C)C2=O)c(Br)cc1O (stereo not shown)	500 to 10000 nM
Cc1nc(N)ncc1COc1cc(/C=C2\SC(=O)N(C)C2=O)c(Br)c(F)c1O	≤ 500 nM
CN1C(=O)S/C(=C\c2cc(OCc3cnc(NC(=O)c4ccncc4)nc3)c(O)c(F)c2Br)C1=O	≤ 500 nM

Parameters: items (list). Returns: IC50 for each item.
1. COc1cc(/C=C2\SC(=O)N(C)C2=O)c(C#N)cc1O
2. CN1C(=O)S/C(=C\c2cc(Oc3ccccc3)c(O)cc2Br)C1=O
3. CN1C(=O)S/C(=C\c2ccc(O)cc2Br)C1=O

Output:
1: 500 to 10000 nM; 2: 500 to 10000 nM; 3: 500 to 10000 nM

---

test_target: recombinant cGAS (aa147-522) (Homo sapiens)
Construct: recombinant cGAS (aa147-522); His6-SUMO (N, cleaved yes)
test_protocol: In vitro assay for inhibition of cGAS activity (ATP consumption, Kinase Glo)
experimental_setup: 37° C. 20 minutes, read-out: Activity (Inhibition of cGAS enzyme activity in vitro, IC50)
Can you tell me IC50 for the items I'm about to list?

Parameters: items (list). Returns: IC50 for each item.
1. O=C1/C(=C/c2cc(OCc3cnc(NCc4ccccn4)nc3)c(O)c(F)c2Br)Sc2ncccc21
2. CN1C(=O)S/C(=C\c2cc(OCc3cnc(-c4cccnc4)nc3)c(O)cc2Br)C1=O
3. CN1C(=O)S/C(=C\c2cc(O/C=C/c3cnc(N)nc3)c(O)c(F)c2Br)C1=O
4. CSc1cc(/C=C2\SC(=O)N(C)C2=O)c(Br)cc1O

Output:
≤ 500 nM
500 to 10000 nM
≤ 500 nM
500 to 10000 nM

---

test_target: recombinant cGAS (aa147-522) (Homo sapiens)
Construct: recombinant cGAS (aa147-522); His6-SUMO (N, cleaved yes)
test_protocol: In vitro assay for inhibition of cGAS activity (ATP consumption, Kinase Glo)
experimental_setup: 37° C. 20 minutes, read-out: Activity (Inhibition of cGAS enzyme activity in vitro, IC50)
measurement_label: IC50

Reference set (2 entries):
molecule	test_target	IC50
COc1cc(/C(Br)=C2\SC(=O)N(C)C2=O)c(Br)cc1O [Ex20]	recombinant cGAS (aa147-522) (Homo sapiens)	≥ 10 µM
CCC(Oc1cc(/C=C2\SC(=O)N(C)C2=O)c(Br)c(F)c1O)c1cnc(Cl)nc1 (stereo not shown) [ExB31]	recombinant cGAS (aa147-522) (Homo sapiens)	0.5 to 10 µM

Parameters: items (list). Returns: IC50 for each item.
1. CSc1ncc(COc2cc(/C=C3\SC(=O)N(C)C3=O)c(Br)cc2O)c(Cl)n1 [Ex98]
2. CC(C)C(=O)Nc1cncc(COc2cc(/C=C3\SC(=O)N(C)C3=O)c(Br)cc2O)c1 [Ex226]
3. Nc1ncncc1COc1cc(/C=C2\Sc3ncccc3C2=O)c(Br)cc1O [Ex73]

Output:
1: 0.5 to 10 µM; 2: ≥ 10 µM; 3: ≤ 0.5 µM
